Assay Info: yeast display, Sf9 membrane polyspecificity reagent, FACS + sequencing; frameworks hold sequencing errors
Outcome Measure: polyreactivity (PSR sort gate)

1. QVQLVESGGGLVQAGGSLRLSCAASGNTFGPYAMGWYRQAPGKERELVAAITWTDTSTHYADSVKGRFTISRDNAKNTVYLQMNSLKPEDTAVYYCARVYYVNTYRYRAGYYYWGQRTQVTVSS; high polyreactivity
2. QVQLVESGGGLVQARGSLRLSCASSGSIFRFNGMGWYRQPPGKERELVATISSGGRTNYADSVKGRFTISRDNAKNTVYLQMNSLKPEDTAVYYCAARSPLRTSYYYPYYYWGQGTQVTVSS; high polyreactivity
